# test-name: chemical genetic growth profiling, strain panel (AID 1159580);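 further: tested at 20 µM; growth read once vehicle control cultures reached saturation at 30 °C; 1 = growth at the plate median or of vehicle wells; lower values mean less growth of the strain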
# condition-notes: S. cerevisiae deletion strains, growth OD, locus YLR027C, strain aat2, stronger effect = lower value
Among all 5,500 compounds or so, about 2,000 (36%) were called active. About 18% were inconclusive and are not listed. This is one part of the list.

>  <molecule>
COc1ccc([C@H]2Oc3cc(OC)cc(OC)c3C[C@H]2O)cc1

>  <normalized growth>
0.997 (inactive)

$$$$
>  <molecule>
O=c1[nH]oc2c1CCNC2

>  <normalized growth>
0.99 (inactive)

$$$$
>  <molecule>
CC(C)COCC(CN(Cc1ccccc1)c1ccccc1)N1CCCC1 (stereo not drawn)

>  <normalized growth>
1.01 (inactive)

$$$$
>  <molecule>
Oc1ccc(Cl)cc1

>  <normalized growth>
0.999 (inactive)

$$$$
>  <molecule>
O=C(Cn1ccnc1[N+](=O)[O-])NCCO

>  <normalized growth>
1.01 (inactive)

$$$$
>  <molecule>
CC(C)C(=O)Nc1ccc([N+](=O)[O-])c(C(F)(F)F)c1

>  <normalized growth>
1.02 (inactive)

$$$$
>  <molecule>
Clc1cccc(Cl)c1NC1=NCCN1

>  <normalized growth>
1.01 (inactive)

$$$$
>  <molecule>
COc1cc2occ(-c3ccccc3)c(=O)c2c(OC)c1C

>  <normalized growth>
0.979 (inactive)

$$$$
>  <molecule>
COc1cc(OC)c2c(=O)c(-c3ccccc3)coc2c1

>  <normalized growth>
0.947 (inactive)

$$$$
>  <molecule>
Oc1ccc(Cl)cc1Cc1cc(Cl)ccc1O

>  <normalized growth>
0.0566 (active)

$$$$
>  <molecule>
C[C@H]1CC[C@@H](C(C)(C)O)CC2=C1CC[C@@H]2C

>  <normalized growth>
0.979 (inactive)

$$$$
>  <molecule>
Cc1cccc(C)c1NC1=NCCCS1

>  <normalized growth>
1.01 (inactive)

$$$$
>  <molecule>
COc1cc(-c2coc3cc(OC)c(OC)c(OC)c3c2=O)cc(OC)c1OC

>  <normalized growth>
1.01 (inactive)

$$$$

###

Reported normalized growth values for a set of compounds
# test-name: chemical genetic growth profiling, strain panel (AID 1159580);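 further: tested at 20 µM; growth read once vehicle control cultures reached saturation at 30 °C; 1 = growth at the plate median or of vehicle wells; lower values mean less growth of the strain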
# condition-notes: S. cerevisiae deletion strains, growth OD, locus YOL012C, strain htz1
Out of some 5,500 compounds screened, about 2,000 (36%) were called active. Another 18% or so got no clear call; they are omitted. Some of the results follow.

>  <compound>
Cc1ccc(Cl)c(Nc2ccccc2C(=O)O)c1Cl

>  <normalized growth>
0.653

$$$$
>  <compound>
CCN(CC)CCOC(=O)c1ccc(N)cc1

>  <normalized growth>
0.92

$$$$
>  <compound>
Cc1cccc(C(=O)O)c1O

>  <normalized growth>
0.786

$$$$
>  <compound>
CC(=O)Oc1c(C)cccc1C(=O)O

>  <normalized growth>
1.54

$$$$
>  <compound>
C=C1C(=O)O[C@@H]2C3O[C@]3(C)CC/C=C(\C)CC[C@@H]12 (stereo partly specified)

>  <normalized growth>
0.318

$$$$
>  <compound>
O=C(O)c1ccccc1-c1c2cc(Br)c(=O)cc-2oc2[c]([Hg])c(O)c(Br)cc12

>  <normalized growth>
0.228

$$$$
>  <compound>
C[C@@H]1C(=O)OC2[C@H](O)C34[C@@H]5OC(=O)[C@@]3(O[C@@H]3OC(=O)[C@H](O)[C@@]34[C@H](C(C)(C)C)[C@H]5O)[C@]21O (stereo partly specified)

>  <normalized growth>
1.18

$$$$
>  <compound>
CC(C)NNC(=O)c1ccncc1

>  <normalized growth>
1.02

$$$$
>  <compound>
Cc1c(Cl)cccc1Nc1ccccc1C(=O)O

>  <normalized growth>
0.632

$$$$
>  <compound>
C=C1C(=O)OC2CC1C(OC(C)=O)C/C(C)=C/CC/C(C)=C/CC[C@]2(C)O (stereo partly specified)

>  <normalized growth>
0.807

$$$$
>  <compound>
CCCCNc1ccc(C(=O)OCCN(C)C)cc1

>  <normalized growth>
0.973

$$$$

###

# test-name: chemical genetic growth profiling, strain panel (AID 1159580);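 further: tested at 20 µM; growth read once vehicle control cultures reached saturation at 30 °C; 1 = growth at the plate median or of vehicle wells; lower values mean less growth of the strain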
# condition-notes: S. cerevisiae deletion strains, growth OD, locus YLR320W, strain mms22, stronger effect = lower value
The campaign covered roughly 5,500 compounds. About 2,000 (36%) were called active. Not shown: some 18% with an inconclusive outcome. The list shows a part of the results.
Reported normalized growth values for a set of compounds
reported-endpoint: normalized growth

>  <compound>
CCCCN1CCCCC1C(=O)Nc1c(C)cccc1C (stereo unspecified)

>  <reported-endpoint>
normalized growth

>  <result>
1.01 (inactive)

$$$$
>  <compound>
C=CC(N)CCC(=O)O (stereo unspecified)

>  <reported-endpoint>
normalized growth

>  <result>
0.952 (inactive)

$$$$
>  <compound>
Cn1c(=O)c2[nH]cnc2n(C)c1=O

>  <reported-endpoint>
normalized growth

>  <result>
1.01 (inactive)

$$$$
>  <compound>
N[C@@H](CC(=O)N1CCn2c(nnc2C(F)(F)F)C1)Cc1cc(F)c(F)cc1F

>  <reported-endpoint>
normalized growth

>  <result>
0.998 (inactive)

$$$$
>  <compound>
CCC(C)(C)C(=O)O[C@H]1C[C@@H](C)C=C2C=C[C@H](C)[C@H](CC[C@@H]3C[C@@H](O)CC(=O)O3)[C@H]21

>  <reported-endpoint>
normalized growth

>  <result>
0.855 (active)

$$$$
>  <compound>
CCCCNc1ccc(C(=O)OCCN(C)C)cc1

>  <reported-endpoint>
normalized growth

>  <result>
0.988 (inactive)

$$$$
>  <compound>
CC1=CC2C(CC1=O)C(C)=CCC2C(C)C (stereo unspecified)

>  <reported-endpoint>
normalized growth

>  <result>
0.9 (inactive)

$$$$
>  <compound>
CC1(C)NC(=O)N(c2ccc([N+](=O)[O-])c(C(F)(F)F)c2)C1=O

>  <reported-endpoint>
normalized growth

>  <result>
0.995 (inactive)

$$$$
>  <compound>
COc1cc(-c2coc3cc(OC)c(OC)c(OC)c3c2=O)cc(OC)c1OC

>  <reported-endpoint>
normalized growth

>  <result>
1.01 (inactive)

$$$$
>  <compound>
Nc1nc2ncc(=O)[nH]c2c(=O)[nH]1

>  <reported-endpoint>
normalized growth

>  <result>
0.972 (inactive)

$$$$
>  <compound>
CC1OC1P(=O)(O)O (stereo unspecified)

>  <reported-endpoint>
normalized growth

>  <result>
0.958 (inactive)

$$$$
>  <compound>
Oc1ccc(Cl)cc1

>  <reported-endpoint>
normalized growth

>  <result>
1.03 (inactive)

$$$$
>  <compound>
C[N+]1(C)C2CC(OC(=O)[C@@H](CO)c3ccccc3)CC1C1OC12 (stereo partly specified)

>  <reported-endpoint>
normalized growth

>  <result>
0.94 (inactive)

$$$$
>  <compound>
OCc1ccccc1O

>  <reported-endpoint>
normalized growth

>  <result>
1.02 (inactive)

$$$$
>  <compound>
CCCCC(=O)Oc1ccccc1C(=O)O

>  <reported-endpoint>
normalized growth

>  <result>
0.996 (inactive)

$$$$
>  <compound>
COc1c2ccoc2c(OC)c2oc(=O)ccc12

>  <reported-endpoint>
normalized growth

>  <result>
0.945 (inactive)

$$$$
>  <compound>
CCC(C)C(=O)O[C@H]1C[C@H](O)C=C2C=C[C@H](C)[C@H](CC[C@@H](O)C[C@@H](O)CC(=O)O)C21 (stereo partly specified)

>  <reported-endpoint>
normalized growth

>  <result>
0.963 (inactive)

$$$$
>  <compound>
COc1c(OC)c2occc2c2oc(=O)ccc12

>  <reported-endpoint>
normalized growth

>  <result>
0.895 (inactive)

$$$$
>  <compound>
CCOC(=O)c1ccc(O)cc1

>  <reported-endpoint>
normalized growth

>  <result>
0.992 (inactive)

$$$$
>  <compound>
NC(CO)C(=O)NNCc1ccc(O)c(O)c1O (stereo unspecified)

>  <reported-endpoint>
normalized growth

>  <result>
0.987 (inactive)

$$$$
>  <compound>
CCCCOC(=O)c1ccc(N)cc1

>  <reported-endpoint>
normalized growth

>  <result>
0.635 (active)

$$$$
>  <compound>
O=C(O)CN1C(=O)c2cccc3cccc(c23)C1=O

>  <reported-endpoint>
normalized growth

>  <result>
0.944 (inactive)

$$$$
>  <compound>
COc1cc2occ(-c3ccccc3)c(=O)c2c(OC)c1C

>  <reported-endpoint>
normalized growth

>  <result>
0.902 (inactive)

$$$$
>  <compound>
C#CCCCCCCCCCCCC(=O)CC(O)COC(C)=O (stereo unspecified)

>  <reported-endpoint>
normalized growth

>  <result>
0.845 (active)

$$$$
>  <compound>
CC(C)C(=O)Nc1ccc([N+](=O)[O-])c(C(F)(F)F)c1

>  <reported-endpoint>
normalized growth

>  <result>
1.03 (inactive)

$$$$
>  <compound>
CCNC(=O)CC[C@H](N)C(=O)O

>  <reported-endpoint>
normalized growth

>  <result>
0.999 (inactive)

$$$$
>  <compound>
O=C1NC(=O)C(=O)C(=O)N1

>  <reported-endpoint>
normalized growth

>  <result>
0.994 (inactive)

$$$$
>  <compound>
CC(=O)OCC[C@H](C)CCC=C(C)C

>  <reported-endpoint>
normalized growth

>  <result>
1 (inactive)

$$$$
>  <compound>
CCCCCCOc1ccccc1C(N)=O

>  <reported-endpoint>
normalized growth

>  <result>
0.59 (active)

$$$$
>  <compound>
CC(C)(C)CC(C)(C)c1ccc(O)c(Cc2ccc(Cl)cc2Cl)c1

>  <reported-endpoint>
normalized growth

>  <result>
1.02 (inactive)

$$$$
>  <compound>
O=C1OC2(c3ccc(O)cc3Oc3cc(O)ccc32)c2ccccc21

>  <reported-endpoint>
normalized growth

>  <result>
1 (inactive)

$$$$
>  <compound>
Oc1ccc(Cl)cc1Cc1cc(Cl)ccc1O

>  <reported-endpoint>
normalized growth

>  <result>
0.0873 (active)

$$$$
>  <compound>
COc1cc(OC)c2c(=O)c(-c3ccccc3)coc2c1

>  <reported-endpoint>
normalized growth

>  <result>
0.87 (active)

$$$$
>  <compound>
O=C1OC(c2ccc(O)cc2)(c2ccc(O)cc2)c2ccccc21

>  <reported-endpoint>
normalized growth

>  <result>
1 (inactive)

$$$$
>  <compound>
C=CCCCCCCCCCCCC(O)CC(O)COC(C)=O (stereo unspecified) (tested in a mixture with another compound)

>  <reported-endpoint>
normalized growth

>  <result>
0.823 (active)

$$$$
>  <compound>
CCCCOC(=O)c1ccccc1C(=O)OCCCC

>  <reported-endpoint>
normalized growth

>  <result>
0.924 (inactive)

$$$$
